- System: primary human fibroblasts derived from IPF patients (LL29 cells) treated with TGF-β1
- METHOD: Inhibition of the fibrotic process (αSMA staining) in TGF-β1-treated fibroblasts
- Format: cell-based
- TEST_CONTEXT: Fibroblast, 96 h, % αSMA-positive LL29 cells, TGF-β1 20 ng/mL, 4 days
pEC50: −log10 of the molar value.
QUANTITY_NAME: pEC50

Hey, primary human fibroblasts derived from IPF patients (LL29 cells) treated with TGF-β1 data for CN1CCN(c2nccc3[nH]c(-c4n[nH]c5ccc(-c6cncc(NC(=O)C7CCCC7)c6)cc45)cc23)CC1 [Compound 246] : pEC50 came out at < 5.00

Hey, primary human fibroblasts derived from IPF patients (LL29 cells) treated with TGF-β1 data for Nc1cncc(-c2ccc3[nH]nc(-c4cc5c(N6CCCCC6)nccc5[nH]4)c3c2)n1 [Compound 992] : pEC50 came out at < 5.00

Hey, primary human fibroblasts derived from IPF patients (LL29 cells) treated with TGF-β1 data for CC(C)(C)CC(=O)Nc1cncc(-c2ccc3[nH]nc(-c4cc5c(-c6ccccc6F)nccc5[nH]4)c3c2)c1 [Compound 72] : pEC50 came out at < 5.00

The reported numbers originate from patent US10463651B2.
